# credit: patent US4970301A

testName: Solubility in water
Format: physicochemical
protocolConditions: addition salt
measuredMetric: solubility (mg/mL)

molecule	valueObserved
COc1ccc(-c2cc(=O)c3c(O)cc(O[C@@H]4O[C@H](CO[C@@H]5O[C@@H](C)[C@H](O)[C@@H](O)[C@H]5O)[C@@H](O)[C@H](O)[C@H]4O)cc3o2)cc1OCC(=O)N1CCN(Cc2ccc(OC)c(OC)c2OC)CC1 [Example 3 (hemitartrate)]	200
COc1ccc(-c2cc(=O)c3c(O)cc(O)cc3o2)cc1OCC(=O)N1CCN(Cc2ccc(OC)c(OC)c2OC)CC1 [Example 5 (methanesulfonate)]	35
COc1ccc(-c2cc(=O)c3c(O)cc(O[C@@H]4O[C@H](CO)[C@@H](O)[C@H](O)[C@H]4O)cc3o2)cc1OCC(=O)N1CCN(Cc2ccc(OC)c(OC)c2OC)CC1 [Example 4 (monophosphate)]	43
CCOC(=O)COc1cc(O)c2c(=O)cc(-c3ccc(OC)c(OCC(=O)N4CCN(Cc5ccc(OC)c(OC)c5OC)CC4)c3)oc2c1 [Example 6 (monophosphate)]	39.5
CCOC(=O)COc1cc(OCC(=O)N2CCN(Cc3ccc(OC)c(OC)c3OC)CC2)c2c(=O)cc(-c3ccc(OC)c(OCC(=O)OCC)c3)oc2c1.Cl [Example 2 (hydrochloride)]	163
